target: pERK1/2 (Thr202/Tyr204), NCI-1H358 (KRAS G12C) (Homo sapiens, UniProt P01116, G12C)
Construct: pERK1/2 HTRF read-out
Sequence (P01116 1-188 isoform P01116-2 G12C): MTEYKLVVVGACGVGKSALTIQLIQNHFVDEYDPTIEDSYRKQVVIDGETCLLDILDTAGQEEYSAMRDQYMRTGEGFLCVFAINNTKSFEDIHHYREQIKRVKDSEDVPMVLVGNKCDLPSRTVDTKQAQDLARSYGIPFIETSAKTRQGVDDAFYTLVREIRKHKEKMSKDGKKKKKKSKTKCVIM
protocolNotes: Assay of intracellular pERK1/2 (Thr202/Tyr204) phosphorylation in NCI-H358 cells (KRAS G12C)
Type: cell-based
conditionDescription: pERK1/2, 2 days, read-out: NCI-H358 (KRAS G12C) IC50
propertyName: pIC50
Quick note: pIC50 values are minus log10 of concentrations in mol/L.

Check out these entries, answers already filled in.
CCc1c(F)ccc2cc(O)cc(-c3nc4c5c(nc(OC[C@@H]6C[C@@H](F)CN6C)nc5c3F)N(C(C)c3cccnc3N)[C@@H](C)CO4)c12 (some centres unmarked)	9.70
Cc1c(C(F)(F)F)c(-c2cc3nc(OC[C@@]45CCCN4C[C@H](F)C5)nc4c3c(n2)OC[C@H](C)N4C(C)c2cccnc2N)c2c(C)n[nH]c2c1F (some centres unmarked)	9.30
Cc1c(C(F)(F)F)c(-c2nc3c4c(nc(OCC5(CN(C)C6CC6)CC5)nc4c2F)N(C(C)c2cccnc2N)[C@@H](C)CO3)c2cn[nH]c2c1F (some centres unmarked)	9.00
Cc1c(F)c(N)cc(-c2nc3c4c(nc(OC[C@]56CCCN5C[C@@H](F)C6)nc4c2F)N(C(C)c2cccnc2N)CCO3)c1C(F)(F)F (some centres unmarked)	9.70

Sample [2H]C1([2H])CN(C(C)c2cccnc2N)c2nc(OC[C@@]34CCCN3C[C@H](F)C4)nc3c(F)c(-c4cc(N)c(F)c(C)c4C(F)(F)F)nc(c23)O1 (some centres unmarked) [Compound 157] — what was its pIC50? 9.52
